Recorded EC50 values for a group of molecules are listed next.
TARGET SYSTEM: Peroxisome proliferator-activated receptor gamma (Homo sapiens)
Sequence (P37231 whole entry): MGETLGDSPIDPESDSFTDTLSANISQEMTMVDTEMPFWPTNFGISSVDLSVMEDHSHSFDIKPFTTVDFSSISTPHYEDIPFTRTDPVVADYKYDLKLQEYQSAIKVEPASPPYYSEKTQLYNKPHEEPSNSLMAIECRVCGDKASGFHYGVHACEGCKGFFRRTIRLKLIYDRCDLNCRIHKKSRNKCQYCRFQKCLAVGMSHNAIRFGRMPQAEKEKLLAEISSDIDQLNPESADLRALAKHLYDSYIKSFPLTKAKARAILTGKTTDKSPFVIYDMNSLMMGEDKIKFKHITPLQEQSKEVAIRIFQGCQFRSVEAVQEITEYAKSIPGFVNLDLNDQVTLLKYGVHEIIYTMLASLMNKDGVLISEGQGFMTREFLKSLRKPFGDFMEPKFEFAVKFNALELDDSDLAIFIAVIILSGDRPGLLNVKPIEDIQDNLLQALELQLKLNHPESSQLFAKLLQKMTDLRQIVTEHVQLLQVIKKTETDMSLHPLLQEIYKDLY
PROTOCOL DETAILS: Agonist activity at PPARgamma (unknown origin)

{"SMILES STRING": "CC(C)(Oc1ccc(Cn2ncn(-c3ccc(OC(F)(F)F)cc3)c2=O)cc1)C(=O)O", "EC50": "> 5 µM"}

Quick one: EC50 for Cc1cc(Cc2cc(-c3ccc(Br)cc3)on2)cc(C)c1OC(C)(C)C(=O)O ? 2.75 µM

Moving on to Cc1cc(OCn2ncn(-c3ccc(C(F)(F)F)cc3)c2=O)cc(C)c1OC(C)(C)C(=O)O > 5 µM

Same question for Cc1cc(CCCn2ncn(-c3ccc(C(F)(F)F)cc3)c2=O)cc(C)c1OC(C)(C)C(=O)O please. > 5 µM

Same lookup for Cc1cc(Cn2ncn(-c3ccc(S(C)(=O)=O)cc3)c2=O)cc(C)c1OC(C)(C)C(=O)O , please. > 5 µM

Same question for Cc1cc(-n2ncn(-c3ccc(C(F)(F)F)cc3)c2=O)cc(C)c1OC(C)(C)C(=O)O please. > 5 µM

Then what about the molecule CC(C)(Oc1c(F)cc(Cn2ncn(-c3ccc(OC(F)(F)F)cc3)c2=O)cc1F)C(=O)O ? > 5 µM

CCc1cc(Cn2ncn(-c3ccc(OC(F)(F)F)cc3)c2=O)cc(CC)c1OC(C)(C)C(=O)O ? 3.09 µM

Note, next up: CC(C)(Oc1c(Cl)cc(Cn2ncn(-c3ccc(OC(F)(F)F)cc3)c2=O)cc1Cl)C(=O)O > 5 µM

What about CC(C)(Oc1ccc(Cn2ncn(-c3ccc(C(F)(F)F)cc3)c2=O)cc1F)C(=O)O ? > 5 µM

Entry to check: CC(C)(Oc1ccc(Cn2ncn(-c3ccc(OC(F)(F)F)cc3)c2=O)cc1F)C(=O)O > 5 µM

Same read-out for Cc1cc(Cn2ncn(-c3ccccc3)c2=O)cc(C)c1OC(C)(C)C(=O)O ? 0.865 µM

Ok, now O=C(O)CCCc1cc2cc(Cl)ccc2n1S(=O)(=O)c1ccc2ncsc2c1 0.559 µM

Another molecule: CC(C)(Oc1ccc(Cn2ncn(-c3ccc(C(F)(F)F)cc3)c2=O)cc1)C(=O)O > 5 µM
